Each entry below carries its reported remaining activity at 0.1 µM.
# study-target: panel of 60 human kinases (Homo sapiens)
# Construct: purchased Reaction Biology Corp
# test-method-notes: Radiolabeled ATP kinase assay, panel of 60 kinases (Table S5)
# Assay type: biochemical
# applied-conditions: MINK/MINK1; 0.1 μM; 10 μM ATP; read-out: % Enzyme Activity (relative to DSMO controls)
endpoint: remaining activity at 0.1 µM

INSERT INTO results (compound, endpoint, observed_result) VALUES
  ('CN1CCN(Cc2ccc(-c3cnc4[nH]cc(-c5ccc6c(c5)OCCO6)c4c3)cc2)CC1', 'remaining activity at 0.1 µM', '6.69%'),
  ('CN1CCN(Cc2ccc(-c3cnc4[nH]cc(-c5cnn(Cc6ccccc6)c5)c4c3)cc2)CC1', 'remaining activity at 0.1 µM', '5.06%'),
  ('CN1CCN(Cc2ccc(-c3cnc4[nH]cc(-c5ccncc5)c4c3)cc2)CC1', 'remaining activity at 0.1 µM', '38.8%'),
  ('CN1CCN(Cc2ccc(-c3cnc4[nH]cc(-c5cccc(Cl)c5)c4c3)cc2)CC1', 'remaining activity at 0.1 µM', '3.06%'),
  ('COc1ccccc1-c1c[nH]c2ncc(-c3ccc(CN4CCN(C)CC4)cc3)cc12', 'remaining activity at 0.1 µM', '9.84%'),
  ('Cc1nn(C)c(C)c1-c1c[nH]c2ncc(-c3ccc(CN4CCN(C)CC4)cc3)cc12', 'remaining activity at 0.1 µM', '7.8%'),
  ('CN1CCN(Cc2ccc(-c3cnc4[nH]cc(-c5ccoc5)c4c3)cc2)CC1', 'remaining activity at 0.1 µM', '3.72%'),
  ('CN1CCN(Cc2ccc(-c3cnc4[nH]cc(-c5ccc6[nH]ccc6c5)c4c3)cc2)CC1 [Compound 1, reference compound]', 'remaining activity at 0.1 µM', '5.53%'),
  ('CN1CCN(Cc2ccc(-c3cnc4[nH]cc(-c5ccccc5Cl)c4c3)cc2)CC1', 'remaining activity at 0.1 µM', '0.19%');

----------
# study-target: HGK/MAP4K4 (Homo sapiens, UniProt O95819)
# Sequence (O95819 whole entry): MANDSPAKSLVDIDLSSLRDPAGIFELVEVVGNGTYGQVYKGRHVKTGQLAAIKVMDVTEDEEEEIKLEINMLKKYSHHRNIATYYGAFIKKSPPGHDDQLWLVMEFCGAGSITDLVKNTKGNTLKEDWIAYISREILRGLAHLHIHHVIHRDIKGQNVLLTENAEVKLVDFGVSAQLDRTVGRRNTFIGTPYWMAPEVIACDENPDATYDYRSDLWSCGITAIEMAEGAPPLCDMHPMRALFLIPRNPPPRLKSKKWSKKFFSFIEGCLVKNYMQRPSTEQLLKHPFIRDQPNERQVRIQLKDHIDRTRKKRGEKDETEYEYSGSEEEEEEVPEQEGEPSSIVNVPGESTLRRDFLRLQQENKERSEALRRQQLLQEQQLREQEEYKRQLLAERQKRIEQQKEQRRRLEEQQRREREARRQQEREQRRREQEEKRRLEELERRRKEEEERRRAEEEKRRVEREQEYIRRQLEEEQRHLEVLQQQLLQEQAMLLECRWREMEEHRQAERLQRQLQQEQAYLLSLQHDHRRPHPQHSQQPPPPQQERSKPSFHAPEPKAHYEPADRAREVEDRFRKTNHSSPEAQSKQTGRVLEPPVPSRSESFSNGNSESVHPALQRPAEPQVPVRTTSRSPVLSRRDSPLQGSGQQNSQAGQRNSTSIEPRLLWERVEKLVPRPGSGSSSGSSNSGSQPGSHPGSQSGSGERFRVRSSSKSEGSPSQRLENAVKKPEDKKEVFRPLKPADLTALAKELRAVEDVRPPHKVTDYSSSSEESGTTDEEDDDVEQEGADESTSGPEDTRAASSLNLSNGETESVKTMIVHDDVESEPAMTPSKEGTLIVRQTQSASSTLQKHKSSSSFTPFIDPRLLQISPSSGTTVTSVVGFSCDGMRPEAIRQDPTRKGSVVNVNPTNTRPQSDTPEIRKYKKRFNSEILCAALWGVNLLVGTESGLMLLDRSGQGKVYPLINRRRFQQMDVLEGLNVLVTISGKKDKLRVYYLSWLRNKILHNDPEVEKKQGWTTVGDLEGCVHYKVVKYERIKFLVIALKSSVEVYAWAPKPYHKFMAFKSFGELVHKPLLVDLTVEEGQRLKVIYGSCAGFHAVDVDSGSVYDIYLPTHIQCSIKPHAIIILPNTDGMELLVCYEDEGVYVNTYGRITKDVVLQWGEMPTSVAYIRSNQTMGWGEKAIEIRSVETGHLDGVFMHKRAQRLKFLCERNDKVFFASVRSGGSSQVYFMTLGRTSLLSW
# test-method-notes: Radiolabeled ATP kinase assay (Reaction Biology Corp.), HGK
# Type: biochemical
# Design: purchased Reaction Biology Corp
# applied-conditions: [Cmpd] 0.025 μM; 10 μM ATP; read-out: % Enzyme Activity (relative to DMSO controls), HGK/MAP4K4, Data 1
endpoint: remaining activity at 0.025 µM

INSERT INTO assay_data (compound, observed_result) VALUES
  ('CN1CCN(Cc2ccc(-c3cnc4[nH]cc(-c5cccc6c5oc5ccccc56)c4c3)cc2)CC1 [Compound 7c]', '99.3%'),
  ('CN1CCN(Cc2ccc(-c3cnc4[nH]cc(-c5ccc(N)nc5)c4c3)cc2)CC1 [Compound 7m]', '38.4%'),
  ('CN1CCN(Cc2ccc(-c3cnc4[nH]cc(-c5cc6ccccc6[nH]5)c4c3)cc2)CC1 [Compound 7a]', '86.1%'),
  ('CNC(=O)Nc1ccc(-c2c[nH]c3ncc(-c4ccc(CN5CCN(C)CC5)cc4)cc23)cc1 [Compound 7am]', '56%'),
  ('CNC(=O)Nc1cccc(-c2c[nH]c3ncc(-c4ccc(CN5CCN(C)CC5)cc4)cc23)c1 [Compound 7ak]', '41.7%'),
  ('CN1CCN(Cc2ccc(-c3cnc4[nH]cc(-c5ccc(N)cc5)c4c3)cc2)CC1 [Compound 7e]', '24%'),
  ('CN1CCN(Cc2ccc(-c3cnc4[nH]ccc4c3)cc2)CC1 [Compound 4]', '101%'),
  ('CN1CCN(Cc2ccc(-c3cnc4[nH]cc(-c5cccc(N)c5)c4c3)cc2)CC1 [Compound 7h]', '98.8%');

----------
# study-target: panel of 60 human kinases (Homo sapiens)
# Construct: purchased Reaction Biology Corp
# Sequence (Q12851 1-820): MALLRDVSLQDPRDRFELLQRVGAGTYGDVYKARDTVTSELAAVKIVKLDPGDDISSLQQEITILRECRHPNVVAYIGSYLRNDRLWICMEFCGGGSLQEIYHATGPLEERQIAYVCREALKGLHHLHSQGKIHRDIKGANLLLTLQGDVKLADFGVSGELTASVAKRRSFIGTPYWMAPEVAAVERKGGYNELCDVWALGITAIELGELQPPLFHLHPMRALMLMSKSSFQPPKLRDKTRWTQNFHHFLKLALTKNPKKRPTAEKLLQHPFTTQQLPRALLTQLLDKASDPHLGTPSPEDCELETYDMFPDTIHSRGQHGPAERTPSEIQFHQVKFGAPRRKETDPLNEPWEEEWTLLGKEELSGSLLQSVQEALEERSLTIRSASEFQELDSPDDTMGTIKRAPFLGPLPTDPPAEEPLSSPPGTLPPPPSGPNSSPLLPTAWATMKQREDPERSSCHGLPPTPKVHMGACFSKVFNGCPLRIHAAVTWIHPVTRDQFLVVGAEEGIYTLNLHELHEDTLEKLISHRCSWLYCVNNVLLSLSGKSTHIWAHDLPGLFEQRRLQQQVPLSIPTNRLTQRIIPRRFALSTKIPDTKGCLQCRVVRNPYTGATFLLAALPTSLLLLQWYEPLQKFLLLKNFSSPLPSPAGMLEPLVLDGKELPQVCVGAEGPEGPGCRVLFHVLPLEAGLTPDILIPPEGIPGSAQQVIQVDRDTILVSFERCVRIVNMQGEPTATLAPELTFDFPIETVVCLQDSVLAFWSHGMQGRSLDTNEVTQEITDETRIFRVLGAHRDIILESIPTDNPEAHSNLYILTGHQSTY
# test-method-notes: Radiolabeled ATP kinase assay, panel of 60 kinases (Table S5)
# Format: biochemical
# applied-conditions: GCK/MAP4K1; 0.1 μM; 10 μM ATP; read-out: % Enzyme Activity (relative to DSMO controls)
endpoint: remaining activity at 0.1 µM

INSERT INTO assay_data (compound, endpoint, observed_result) VALUES
  ('CN1CCN(Cc2ccc(-c3cnc4[nH]cc(-c5ccc6[nH]ccc6c5)c4c3)cc2)CC1 [Compound 1, reference compound]', 'remaining activity at 0.1 µM', '27.5%'),
  ('COc1ccccc1-c1c[nH]c2ncc(-c3ccc(CN4CCN(C)CC4)cc3)cc12', 'remaining activity at 0.1 µM', '12.3%'),
  ('CN1CCN(Cc2ccc(-c3cnc4[nH]cc(-c5ccncc5)c4c3)cc2)CC1', 'remaining activity at 0.1 µM', '59.6%'),
  ('CN1CCN(Cc2ccc(-c3cnc4[nH]cc(-c5ccoc5)c4c3)cc2)CC1', 'remaining activity at 0.1 µM', '33.6%');

----------
Entries and their measured remaining activity at 0.1 µM follow.
# study-target: panel of 60 human kinases (Homo sapiens, UniProt O94921)
# Construct: purchased Reaction Biology Corp
# Sequence (O94921 whole entry): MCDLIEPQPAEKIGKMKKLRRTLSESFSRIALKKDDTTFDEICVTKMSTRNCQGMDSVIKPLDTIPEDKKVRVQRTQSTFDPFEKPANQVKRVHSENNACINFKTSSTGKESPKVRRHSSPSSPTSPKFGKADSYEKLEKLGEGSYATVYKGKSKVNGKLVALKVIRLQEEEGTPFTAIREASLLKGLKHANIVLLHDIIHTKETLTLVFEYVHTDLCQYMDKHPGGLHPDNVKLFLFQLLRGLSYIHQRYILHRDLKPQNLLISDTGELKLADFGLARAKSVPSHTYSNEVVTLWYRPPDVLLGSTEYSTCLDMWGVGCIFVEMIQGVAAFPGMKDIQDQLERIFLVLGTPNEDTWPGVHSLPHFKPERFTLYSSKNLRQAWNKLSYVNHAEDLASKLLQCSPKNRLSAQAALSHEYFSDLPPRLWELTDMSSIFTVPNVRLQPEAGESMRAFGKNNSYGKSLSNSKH
# test-method-notes: Radiolabeled ATP kinase assay, panel of 60 kinases (Table S5)
# Format: biochemical
# applied-conditions: CDK14/cyclin Y (PFTK1); 0.1 μM; 10 μM ATP; read-out: % Enzyme Activity (relative to DSMO controls)
endpoint: remaining activity at 0.1 µM (%)

INSERT INTO assay_data (compound, study_target, units_label, observed_result) VALUES
  ('CN1CCN(Cc2ccc(-c3cnc4[nH]cc(-c5ccc6c(c5)OCCO6)c4c3)cc2)CC1', 'panel of 60 human kinases (Homo sapiens, UniProt O94921)', '%', 66.3),
  ('CN1CCN(Cc2ccc(-c3cnc4[nH]cc(-c5ccoc5)c4c3)cc2)CC1', 'panel of 60 human kinases (Homo sapiens, UniProt O94921)', '%', 83.8),
  ('COc1ccccc1-c1c[nH]c2ncc(-c3ccc(CN4CCN(C)CC4)cc3)cc12', 'panel of 60 human kinases (Homo sapiens, UniProt O94921)', '%', 76.4),
  ('CN1CCN(Cc2ccc(-c3cnc4[nH]cc(-c5ccncc5)c4c3)cc2)CC1', 'panel of 60 human kinases (Homo sapiens, UniProt O94921)', '%', 35),
  ('CN1CCN(Cc2ccc(-c3cnc4[nH]cc(-c5ccccc5Cl)c4c3)cc2)CC1', 'panel of 60 human kinases (Homo sapiens, UniProt O94921)', '%', 85),
  ('CN1CCN(Cc2ccc(-c3cnc4[nH]cc(-c5cccc(Cl)c5)c4c3)cc2)CC1', 'panel of 60 human kinases (Homo sapiens, UniProt O94921)', '%', 92.5),
  ('Cc1nn(C)c(C)c1-c1c[nH]c2ncc(-c3ccc(CN4CCN(C)CC4)cc3)cc12', 'panel of 60 human kinases (Homo sapiens, UniProt O94921)', '%', 83.9),
  ('CN1CCN(Cc2ccc(-c3cnc4[nH]cc(-c5ccc6[nH]ccc6c5)c4c3)cc2)CC1 [Compound 1, reference compound]', 'panel of 60 human kinases (Homo sapiens, UniProt O94921)', '%', 88.2),
  ('CN1CCN(Cc2ccc(-c3cnc4[nH]cc(-c5cnn(Cc6ccccc6)c5)c4c3)cc2)CC1', 'panel of 60 human kinases (Homo sapiens, UniProt O94921)', '%', 30.1);
